ASSAY_NOTES: label from the status in PepcDB records
MEASURED_PARAMETER: protein production

| QUERY_SEQUENCE | DATA_VALUE |
| --- | --- |
| MVGISFVFDKISNGISSYKSIKGIEQAHKSKKIASDLREYGYKLLDCRKLEAAKDAFEEALRFDPTNPEIQMGLFKSAVFQPILTKNPTYYDAEIALKKIETILKKNPNDRHAYYFMGEIYRDSDPKKASNYYKKVISLDPKSYLTGLAYNSLAYIAATEKDNDLAFYYMKKAANLCEMNPTVLNNLSYQHLIRGQYEITIEKLTRLIKHDPYKIIVFWNIINSLRMIGKFQEAYIYNHMLIECIEDETTSYHAANLGAFFFQTDPSGDGVFFKEISGKKFYSYCSMALTCYVLDLTEEANMYLEKAQKLDCFSKASAIKFLYYNIECIQKNNVKLIYKLDDIKERLIKLDLFTNVSITVARNETQYINMAKV | failed |
| MDYNKTAKDILKLLGGEKNVMSAAHCATRLRLVLKNEKEARTKEIEKLDGVKGVFSSSGQYQIIIGQGSVNKVYKAFVEGTGISESSLSDTKKAAMKNM | not failed |
| MAYLAPISSSLSIFKNPQLSRFQFSSSSPNPLFLRPRIQILSMTMNKSPSLVVVAATTAAEKQKKRYPGESKGFVEEMRFVAMRLHTKDQAKEGEKETKSIEERPVAKWEPTVEGYLRFLVDSKLVYDTLELIIQDSNFPTYAEFKNTGLERAEKLSTDLEWFKEQGYEIPEPTAPGKTYSQYLKELAEKDPQAFICHFYNIYFAHSAGGRMIGRKVAERILDNKELEFYKWDGELSQLLQNVREKLNKVAEEWTREEKNHCLEETEKSFKYSGEILRLILS | failed |
| MTTFLQRDDFAVTARVLGALFYYSPESHETAPLVQALLNDDWQAQWPLDAEALAPVAAMFKTHSEESLPQAWQRLFIGPYALPSPPWGSVWLDRESVLFGDSTLALRQWMRENGIQFEMQQNEPEDHFGSLLLLAAWLAENDRHHECEQLLAWHLFPWSSRFLDVFIDHAGHPFYQALGQLARLTLAQWQAQLIIPVAVKPLFR | not failed |
| MRITHLGHSCILVEAAGQRILVDPGNLSRSWRGLTDLDAILVTHRHPDHVDPEHIGALVDANSGAVVRAEEGACHEIPALDADPVAPGDVLQIGEVRIEAVGGRHAVIHRDLEPIGNVGYLIGEGLGTILYHPGDELDETPRGVDVLACPAHAPWAAMKETVDFARSVGARHGFLIHEGLLNGRGWQLSFDRHQEMVPTTFHDLRNGQPWEVPQDLEHHHHHH | failed |

The value of protein production measured for the sequence "MLPWNFEGEASEPAQDPTMAPHKRQSYEEELANAITHGVGLVLSLIGWVGLLVLSGLAGGGWDLAASAVFGGTLVFLYATSTLYHSVGTARLKRTLRILDHVAIFLLIAGTYTPFAGVLMREGWGWSVLALVWGIALAGLLFKLFSTHRFHPAATTLYLLMGWLGVLFADPMSAALPLGGLLLIVAGGLAYTIGVLFYGWHSLRYSHAIWHVFVLVGSACHYAAVVLYVL" turned out to be failed

Data point: "MAKGPLVSFQALVENARDLVYVLDAGGAIRYASPNVRQVLGYDPEGHTRETLYALDFVHPEDRTYAEAALEDLLRHPGKTREFRLRLLDAWGRVRAVRVWGRNLLEDPAVRGIIINVHDETELEAERA" ; protein production = failed

Recorded result, "MSLSQDGLLGEVLSEGVLTLTLGRAPAHPLSRAMIAALHDALRRAMGDDHVHVLVIHGPGRIFCAGHDLKEIGRHRADPDEGRAFVTDLFEACSALMLDLAHCPKPTIALVEGIATAAGLQLMAACDLAYASPAARFCLPGVQNGGFCTTPAVAVSRVIGRRAVTEMALTGATYDADWALAAGLINRILPEAALATHVADLAGALAARNQAPLRRGLETLNRHLELPLEQAYALATPVMVEHFMDPGRRHLDWIDEGHHHHHH" , protein production: not failed

Looking up "MDKNTRVGKRKKRNKAMRIFWSVMAVILVAIGGFALYEYNTVKNAADTAYRSGGLGNAENGSKNSVISNSKPIAILLMGTDTGALGRTYKGRTDSIMVAVLNPKTKKTTLVSFERDQQVNLPDYPENSPSKLNAAYAYGNAKELAKVLKKYYNIPINAYVLINMGGLKTIVNKVVGVDIAPILSFSYEGYTFTKGKTTHMDGAKALAYSRMRYDDPEGDYGRQKRQRQVLSALLNKAESATTLLNSSFISSLSKQVQTDFTFSDMTSMAKRYLAATKDLKTDYTHGTSYMQDGVSYQKVSVSERQRISNLIRKTLGLKTKTVSTDSIDTSTSSSSSSSSTTTDSDTTGGAGNTAGPSDNGAAAGNGADSGTTGGYSAGNDQNNSTGY" , I see its protein production listed as failed

Sure, the documented protein production for "MSLALLLGYELPLTGANAAYGRVFQEAARLQLDRFNAAGGVGGRPVDILYADSRDDADQARTIARAFVDDPRVVGVLGDFSSTVSMAAGSIYGKEGMPQLSPTAAHPDYIKISPWQFRAITTPAFEGPNNAAWMIGDGFTSVAVIGVTTDWGLSSAQAFRKAFELRGGAVVVNEEVPPGNRRFDDVIDEIEDEAPQAIYLAMAYEDAAPFLRALRARGSALPVYGSSALYSPKFIDLGGPAVEGVRLATAFVLGASDPVVVEFVSAYETLYGAIPTLFAAHGYDAVGIMLAAVGRAGPEVTRESLRDALAATDRYAGVTGITRFDPETRETTKILTRLVVREGDFRVIDREGHHHHHH" is not failed

Looking up "MTKLSDRLMEIYRLINQAARVADIGTDHAAIPIALLETNKSSFLVATDIGLGPLEKAKEQIELADLDQAKQIVLRLGDGLSVIKASDKIDTVVIAGMGGELIAKIISKIPDYLKNAKFILQPNNEEIDVRKAIEKNGQYIETEKIIYENRHFYEIIVAKRSQQGIVKMTNRELRFGPCLLKHRTSTFKNKWQERLDHSKQIEKILEKSLRTSTKRYDSLQAEIKTIEEALK" , I found its protein production recorded as not failed

Every entry's value here was drawn from a protein production outcome set (Wang et al. 2014).
